Assay: Pharmacokinetic study in rats
Assay type: in vivo
Conditions: rat, plasma, iv, 1 mg/kg
metric: half-life (min)
The figure you give is taken to be in min; do not add the unit.

So for COc1c(C#N)ccnc1N1C2CCC1CN(C(=O)c1cccnc1-n1cccn1)C2 [SDM‐878] , the logged half-life turned out to be 22.2

* * *

Assay: Pharmacokinetic study in rats
Format: in vivo
Conditions: rat, plasma, po, 30 mg/kg
metric: Tmax (min)
The figure you give is taken to be in min; do not add the unit.

So for COc1c(C#N)ccnc1N1C2CCC1CN(C(=O)c1cccnc1-n1cccn1)C2 , the logged Tmax turned out to be 15

* * *

Test: Pharmacokinetic study in rats
Type: in vivo
Conditions: rat, plasma, po, 30 mg/kg
metric: Cmax (ng/mL)
The figure you give is taken to be in ng/mL; do not add the unit.

So for COc1c(C#N)ccnc1N1C2CCC1CN(C(=O)c1cccnc1-n1cccn1)C2 , the logged Cmax turned out to be 1180
